- TESTED_TARGET: Glucose transporter (Leishmania mexicana) (UniProt O61059)
- PROTOCOL_SUMMARY: ST_JUDE_LEISH: Cytotoxicity at 2uM final concentration against transgenic Leishmania Mexicana promastigotes LmGT2 that are glucose transport deficient and complemented with the L. Mexicana glucose transporter 2. Activity is measured by DNA content using SYBR green in vitro
- Format: functional
Overview of reported inhibition across a group of molecules:
READOUT: inhibition (%)

MOLECULE	TESTED_TARGET	RESULT
COc1c(C(=O)NC2CCN(Cc3ccccc3)C2)cnc2ccccc12 (stereo not given)	Glucose transporter (Leishmania mexicana) (UniProt O61059)	8.95
c1ccc(CN2CCC(NCc3ccccc3-c3cccc(CNC4CCCC4)c3)CC2)cc1	Glucose transporter (Leishmania mexicana) (UniProt O61059)	7.14
O=C(/C=C/c1ccc(Cl)c(Cl)c1)NCCCCCCN1CCN(C(=O)Nc2cc(F)cc(F)c2)CC1	Glucose transporter (Leishmania mexicana) (UniProt O61059)	7.38
Cc1ccc(OCCCON2C(=N)N=C(N)NC2(C)C)cc1C	Glucose transporter (Leishmania mexicana) (UniProt O61059)	1.46
O=C(Nc1cccc2ccccc12)N1CCC(NS(=O)(=O)c2cccc(C(F)(F)F)c2)CC1	Glucose transporter (Leishmania mexicana) (UniProt O61059)	0.91
